Origin of values: ChEMBL document CHEMBL3988442

Test system: Trypanosoma brucei
Assay: Trypanosoma brucei 72 hour study
Assay type: functional, organism-based
Set-up: scale not given: in the data most compounds retested in dose-response had high values
Conditions: 30 µM; 30.03 µM
In all, about 66,000 compounds went through this assay and about 960 (1.5%) showed an effect of 50% or more. This excerpt belongs to a sample that is enriched for strong results.
hey, just use label 1 if measured Percent Effect is less than 20%, otherwise label 0

Observe how each entry below is paired with its result.
{"columns": ["Molecule", "Class assignment"],
 "data": [
  ["COc1nn(C)c2c1CCCN(C(=O)c1ccc3c(c1)OCO3)C2.O=C(O)C(F)(F)F", "label 1"],
  ["NCc1ccc(Oc2cccc(Cl)c2Cl)cc1", "label 1"],
  ["CCN1CC2(CC1=O)CN(Cc1ccco1)CCN(C(=O)C(C)C)C2.O=C(O)C(F)(F)F (configuration not stated)", "label 1"],
  ["CCCOc1ccccc1C(N)CC(C)C (configuration not stated)", "label 1"]
]}

Consider `Cc1ccc(C(=O)N(CCC#N)Cc2ccccn2)cc1C` . Does its Percent Effect lie strictly below 20%? label 0

* * *

# Percent Effect listing for each entry below
Tested on: Trypanosoma brucei
Experiment: Trypanosoma brucei 72 hour study
Assay type: functional, organism-based
Parameters: scale not given: in the data most compounds retested in dose-response had high values
Conditions: 30.3 µM; […]
The campaign covered roughly 66,000 compounds. About 960 (1.5%) showed an effect of 50% or more. Many of the other results were omitted from the sample, so strong results are more common in it than they were.
Respond with the bare value in %.

{"columns": ["Compound", "Target under test", "Percent Effect, %"],
 "data": [
  ["CCC(CNc1ncnc2oc(C)nc12)Cc1ccccc1 (stereo not drawn)", "Trypanosoma brucei", 10.79],
  ["Cl.c1cn(-c2cncc(C3CCNCC3)n2)cn1", "Trypanosoma brucei", -40.04],
  ["CN(CCO)CC1COCCN1C(=O)C1(c2cccs2)CCCC1.O=CO (stereo not drawn)", "Trypanosoma brucei", 95.25],
  ["Cc1cc(C[C@@H]2CCC[C@H]2NCc2ccccc2C)on1.O=C(O)CC(O)(CC(=O)O)C(=O)O", "Trypanosoma brucei", -2.54],
  ["Cc1cc(C(=O)N2CC[C@H]3[C@H](C[C@@H](CN4CCCC4)N3C)C2)c(C)o1.O=C(O)C(F)(F)F.O=C(O)C(F)(F)F", "Trypanosoma brucei", -13.25],
  ["O=C(N1CCOCC1CO)C1(c2cccs2)CCCC1 (stereo not drawn)", "Trypanosoma brucei", -27.69],
  ["Cc1cc(NC(=O)N(CCO)Cc2ccsc2)no1", "Trypanosoma brucei", 3.821]
]}

Could you now look at the following compound, please?
Lookup: Percent Effect / Trypanosoma brucei / `CN1CCN(c2nccc(-c3cncnc3C3CCCCC3)n2)CC1` -9.341

* * *

Test system: Trypanosoma brucei
Assay: Trypanosoma brucei 72 hour study
Assay type: functional, organism-based
Design: scale not given: in the data most compounds retested in dose-response had high values
Details: 30 µM; 30.03 µM
Out of some 66,000 compounds screened, about 960 (1.5%) showed an effect of 50% or more. The full list was thinned out, with strong results kept by preference.
Measured parameter: Percent Effect (%)
Express it in %; write the number only.

{"columns": ["Compound", "Measured result"],
 "data": [
  ["O=C(O)C(F)(F)F.O=C1COC2(CCN(Cc3cccs3)CC2)CN1c1ccsc1", 3.746],
  ["Cc1nc(C)n(CC2CN(c3ncnc4[nH]ccc34)CCO2)n1 (configuration not stated)", 20.56],
  ["CCCN1CCC(NC(=O)c2ccc(F)cc2I)CC1", 80.53],
  ["CC(C)c1nccn1C(C)C(=O)N1CCN(c2ccccc2Cl)CC1 (configuration not stated)", 16.25]
]}

Requested read-out Percent Effect, target or system Trypanosoma brucei, entry `CCOC(=O)c1ccccc1NC(=O)CN(C)Cc1ccccc1Cl.O=C(O)C(=O)O` 103.8

Give recorded Percent Effect with Trypanosoma brucei for the following compound: `Clc1cc(NCc2ccncc2)nc2[nH]ccc12` -24.9

Kindly state the measured Percent Effect obtained for Cc1cnc2n(c1=O)CC(C(=O)Nc1ccon1)CS2 (configuration not stated) with Trypanosoma brucei. -0.7773

Lab note: need Percent Effect with Trypanosoma brucei for entry `O=C(O)C(F)(F)F.O=C(O)C(F)(F)F.O=C(c1cccnc1)N1CCn2nnc(COc3ccccn3)c2C1` , please look it up. 20.03

Item: `Cc1occc1C(=O)N1C[C@@H]2OCCN(C(C)C)[C@@H]2C1.O=C(O)C(F)(F)F` Test system: Trypanosoma brucei Read-out: Percent Effect Value: ? 5.268

Lookup: Percent Effect / Trypanosoma brucei / Cc1cc(NC(=O)N2CCCC2C(C)(C)O)c2ncccc2c1 (configuration not stated) -36.24

Request body: readout Percent Effect, system Trypanosoma brucei, query CC(CNS(C)(=O)=O)Oc1cccc(Cl)c1 (configuration not stated) . Return the value. -19.79

What reported Percent Effect corresponds to `O=C(O)C(F)(F)F.O=C(O)C(F)(F)F.O=c1cc(Cn2cncn2)nc2n1CCCN(CCN1CCCC1)C2` on Trypanosoma brucei? 14.15

Trypanosoma brucei / Percent Effect / `CN(CC(=O)Nc1ccccc1C(=O)NC1CC1)Cc1ccccc1Cl` : value? -3.79

Identify the measured Percent Effect of `Cc1cccnc1NCCNC(=O)c1cnc(-c2ccccn2)nc1O` for Trypanosoma brucei. 99.84

Query for Trypanosoma brucei: what Percent Effect does the record show for `O=C(NC[C@]12COC[C@H]1CN(Cc1cccs1)C2)c1ccsc1.O=C(O)C(F)(F)F` ? 48.3

* * *

System: Trypanosoma brucei
Assay: Trypanosoma brucei 72 hour study
Format: functional, organism-based
Set-up: scale not given: in the data most compounds retested in dose-response had high values
Details: 30 µM; 30.03 µM
The whole screen tested about 66,000 compounds, of which about 960 (1.5%) showed an effect of 50% or more. The sample holds strong results, similar compounds and a random draw of the others, so the mix is not that of the screen.
Measured parameter: Percent Effect

{"columns": ["Molecule", "Target under test", "Percent Effect"],
 "data": [
  ["COc1ccc(C)cc1C(C)NS(=O)(=O)c1ccc2c(c1)CCC(=O)N2 (configuration not stated)", "Trypanosoma brucei", "-36.95%"]
]}

Would you kindly share the measured Percent Effect for `CNC(=O)CN(C)Cc1ccc(F)cc1Cl` ? -10.17%

Could you tell me which Percent Effect is on file for `CCC(=O)N1CCCN(Cc2cc(F)cc(Br)c2)CC1` ? -27.39%

Recorded Percent Effect of `Fc1cccc(-c2noc3c2CN(Cc2cncn2C2CC2)CC3)c1` , please. 24.68%

Can you look up the measured Percent Effect of O=C1N(Cc2ccc(F)c(F)c2)CCCC12CCN(C1CCSCC1)C2 (configuration not stated) for me? 50.02%

Quick one: Percent Effect for `Cc1ccc(S(=O)(=O)N2CCC(S(=O)(=O)c3nncn3C)CC2)cc1C` ? -15.11%

Returns the measured Percent Effect for the input molecule. Input: `CCOc1ccccc1NC(=O)CN(C)Cc1ccccc1Cl` 104.4%
